Kindly supply the reported Percent Effect values for the records listed here.
- Species: Homo sapiens
- method_notes: To identify inhibition of the IFN signalling (Jak-Stat) pathway via expression of an eGFP reporter gene under the control of an IFN-stimulated response element (ISRE) containing MxA promoter.
- Assay type: functional
- Design: scale not given: direction of the effect not stated beside the values
- run_parameters: 30 µM
Give bare numbers, in %.

compound: O=C1NC2(CCN(C(=O)Cc3ccsc3)CC2)CC1c1ccncc1 (stereo unspecified)
Percent Effect, %: 5.79

State the recorded Percent Effect for every item in the following list.
1. CCOC[C@H]1CC[C@H]2[C@H](CCN2C(=O)c2ccncc2F)O1
2. CS(=O)(=O)N1CCC(C(=O)NC(Cc2ccsc2)c2ccccn2)CC1 (stereo unspecified)
3. CC(=O)Nc1nc(CN2CCCC2c2cnn(C)c2)cs1 (stereo unspecified)
4. CCc1nc(CN2CCCC(NCc3ncc(C(C)(C)C)o3)C2)no1 (stereo unspecified)
5. CNS(=O)(=O)c1cccc(CNC(=O)c2c(C)nn(C)c2C)c1
6. Cc1cnn(CC2CCCN2Cc2nc3ccccc3n2C)c1 (stereo unspecified)
7. Nc1cc(N2CCCC2c2cnccn2)ncn1 (stereo unspecified)
8. C[C@@H]1CN(C(=O)NC2CC2)C[C@]12CCN(c1ccsc1)C2=O

1: -17.8; 2: 13.2; 3: -5.41; 4: -1.65; 5: 30.5; 6: -22.9; 7: 2.07; 8: 8.5

State the recorded Percent Effect for every item in the following list.
1. Oc1ccc(N2CCN(Cc3cc4c(cc3Br)OCCO4)CC2)cc1
2. CC(=O)N1C[C@H](NC(=O)c2cscn2)[C@@H]2OCCC[C@@H]21

1: 27.4; 2: -9.35

====

- experimental_system: Ubiquitin-activating enzyme e1, putative (Leishmania donovani (strain BPK282A1))
- Sequence (whole entry): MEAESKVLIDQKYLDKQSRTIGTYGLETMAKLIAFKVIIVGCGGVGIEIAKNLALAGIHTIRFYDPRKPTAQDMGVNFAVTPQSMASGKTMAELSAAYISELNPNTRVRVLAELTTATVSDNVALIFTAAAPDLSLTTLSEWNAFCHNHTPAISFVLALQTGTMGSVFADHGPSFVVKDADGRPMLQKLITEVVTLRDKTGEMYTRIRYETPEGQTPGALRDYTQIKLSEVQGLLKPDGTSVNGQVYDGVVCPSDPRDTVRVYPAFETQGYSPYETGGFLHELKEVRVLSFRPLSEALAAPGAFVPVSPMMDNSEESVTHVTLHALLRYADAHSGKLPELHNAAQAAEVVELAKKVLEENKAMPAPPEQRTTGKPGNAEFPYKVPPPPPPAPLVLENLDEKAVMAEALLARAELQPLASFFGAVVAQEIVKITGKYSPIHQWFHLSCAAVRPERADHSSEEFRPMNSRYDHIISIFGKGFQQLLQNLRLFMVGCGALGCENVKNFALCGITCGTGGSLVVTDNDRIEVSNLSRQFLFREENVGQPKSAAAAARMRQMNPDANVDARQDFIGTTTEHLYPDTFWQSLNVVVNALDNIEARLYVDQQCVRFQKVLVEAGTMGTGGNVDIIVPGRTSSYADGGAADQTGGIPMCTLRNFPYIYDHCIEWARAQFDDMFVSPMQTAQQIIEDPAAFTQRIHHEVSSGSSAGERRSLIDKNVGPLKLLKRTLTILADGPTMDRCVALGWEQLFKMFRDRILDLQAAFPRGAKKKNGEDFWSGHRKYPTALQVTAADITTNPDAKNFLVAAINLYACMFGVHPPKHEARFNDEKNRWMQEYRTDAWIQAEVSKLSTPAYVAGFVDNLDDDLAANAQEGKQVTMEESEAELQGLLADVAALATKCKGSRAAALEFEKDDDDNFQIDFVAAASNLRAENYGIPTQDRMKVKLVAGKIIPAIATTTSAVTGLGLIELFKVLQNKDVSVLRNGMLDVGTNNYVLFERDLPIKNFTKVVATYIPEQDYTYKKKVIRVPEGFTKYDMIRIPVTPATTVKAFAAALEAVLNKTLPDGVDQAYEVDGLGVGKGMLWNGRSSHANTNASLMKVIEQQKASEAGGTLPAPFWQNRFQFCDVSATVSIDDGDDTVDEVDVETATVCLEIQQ
- method_notes: Leishmania donovani Ubiquitin Activating Enzyme (LdE1)
- Type: functional
- Design: scale not given: direction of the effect not stated beside the values
- run_parameters: 30 µM
Potency and affinity values are given separately.
Kindly supply the reported Percent Effect values for the records listed here.
One number for each entry, in %.

compound: O=C(NCc1cccc2cccnc12)N1CCC(n2cncn2)CC1
readout_type: Percent Effect
measured_result: 6.33
//
compound: COc1cccc(N2CCN(CCC(=O)NC3CCCC3)CC2)c1
readout_type: Percent Effect
measured_result: 7.89
//
compound: Cc1ccccc1CN1CCC2(COCc3cnc(N(C)C)nc32)C1 (stereo unspecified)
readout_type: Percent Effect
measured_result: 2.74
//
compound: Cn1cccc1C(=O)N1CCC2(CC1)CN(c1cncnc1)C(=O)CO2
readout_type: Percent Effect
measured_result: -189
//
compound: Cc1nc(COC[C@@H]2CC[C@H]3[C@H](CCN3c3ncccn3)O2)cs1
readout_type: Percent Effect
measured_result: 0

State the recorded Percent Effect for every item in the following list.
1. O=C(c1nc(COc2ccc3c(c2)OCO3)no1)N1CCCC1
2. Cc1cc(O)nc(C2CCCN(Cc3ccncc3)C2)n1 (stereo unspecified)
3. CC(=O)N1CCCC(c2ccc(Nc3nc(C)cc(C)n3)cn2)C1 (stereo unspecified)
4. Cn1cnc(S(=O)(=O)NCCCN2CCCCCC2)c1Cl
5. CN(Cc1ccsc1)C(=O)CS(=O)(=O)Cc1ccc(Cl)c(Cl)c1
6. Cc1nc(C2CCCN(C(=O)c3ccc(Cn4cccn4)o3)C2)no1 (stereo unspecified)

1: 1.33; 2: 14.9; 3: 5.33; 4: 8.11; 5: -5.2; 6: -5.2
